# System: Plasmodium falciparum
# experimental details: Antimalarial activity against Plasmodium falciparum IMT Guy harboring Ppcrt K76T, A220S, N326D and I371R mutant gene, Pmdr1 T184FN, 1042D and D1246Y, mutant gene and Pfmrp H191Y and S437A mutant gene and Pfnhe-1 ms4760 microsatellite mutant assessed as incorporation of [3H]hypoxanthine after 48 hrs by scintillation counter
# Type: functional, organism-based
assay readout: IC50 (µM)
Entry rule: numbers only, all in µM.

Enquiry: If you can, please state the reported IC50 value of CC(C)c1c(C(=O)Nc2ccccc2)c(-c2ccccc2)c(-c2ccc(F)cc2)n1CC[C@@H](O)C[C@@H](O)CC(=O)O [ATORVASTATIN] .
Return: 7.1
